- System name: Human Glucocorticoid Receptor (Homo sapiens)
- Construct: endogenous in cells
- Sequence (P04150 whole entry): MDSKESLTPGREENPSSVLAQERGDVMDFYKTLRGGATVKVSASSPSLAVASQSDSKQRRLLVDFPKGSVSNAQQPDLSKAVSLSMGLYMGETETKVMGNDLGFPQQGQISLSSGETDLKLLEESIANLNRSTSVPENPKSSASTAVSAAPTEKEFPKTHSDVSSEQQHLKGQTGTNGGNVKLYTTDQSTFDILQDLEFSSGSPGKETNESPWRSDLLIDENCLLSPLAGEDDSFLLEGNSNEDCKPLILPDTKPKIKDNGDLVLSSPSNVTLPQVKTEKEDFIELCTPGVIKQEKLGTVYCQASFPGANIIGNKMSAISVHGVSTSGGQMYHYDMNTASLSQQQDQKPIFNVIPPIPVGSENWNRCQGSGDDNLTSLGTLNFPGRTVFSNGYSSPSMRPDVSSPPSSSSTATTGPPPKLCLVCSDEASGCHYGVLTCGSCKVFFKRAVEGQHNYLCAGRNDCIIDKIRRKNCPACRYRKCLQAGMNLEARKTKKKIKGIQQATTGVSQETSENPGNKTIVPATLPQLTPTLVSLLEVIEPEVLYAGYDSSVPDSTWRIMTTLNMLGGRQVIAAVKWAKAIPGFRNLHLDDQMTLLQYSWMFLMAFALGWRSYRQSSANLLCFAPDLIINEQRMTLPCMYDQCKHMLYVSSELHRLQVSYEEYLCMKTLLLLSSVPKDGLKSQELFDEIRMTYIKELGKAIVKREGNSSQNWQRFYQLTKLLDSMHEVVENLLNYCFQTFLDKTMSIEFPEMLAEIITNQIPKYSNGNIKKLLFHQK
- Assay explanation: Competition Binding in IM-9 Human Glucocorticoid Receptor (GR IM-9)
- Stated conditions: cytosol from IM-9 cell line, 1.5 nM [3H]-Dexamethasone, 4° C. for 6 hours
- Experimental: Competition Binding in IM-9 Human Glucocorticoid Receptor (GR IM-9) Glucocorticoid receptor competition binding assays were carried out in a polypropilene 96-well plate. In each well was incubated 100 μg of cytosol from IM-9 cell line, 1.5 nM [3H]-Dexamethasone (71 Ci/mmol, 1 mCi/ml, Perkin Elmer NET1192001MC) and compounds studied and standard. Non-specific binding was determined in the presence of Triamcinolone 10 μM (Sigma Aldrich T6376). […]
What IC50 was measured for each of the following?

Please review the following examples before continuing.
# Compound, Recorded endpoint, Obs value
records = [
    ("CC1=C(C(=O)C2CC2)C(c2csc3c(C#N)cccc23)C(C(=O)OCC2CC2)=C(N)N1 (centres unmarked)", "IC50", "< 100 nM"),
    ("CC(=O)C1=C(C)NC(C)=C(C(=O)OCc2ccc(Br)cc2)C1c1csc2ncccc12 (centres unmarked)", "IC50", "< 100 nM"),
    ("CC(=O)C1=C(C)NC(C)=C(C(=O)OCC2CCOCC2)C1c1csc2ccccc12 (centres unmarked)", "IC50", "100 to 1000 nM"),
]

Please look at the items below and tell me IC50 for each one, in order.
1. CC(=O)C1=C(C)NC(C)=C(C(=O)OC2CCCC2)C1c1csc2ncccc12 (centres unmarked)
2. COC(=O)C1=C(N)NC(C2CC2)=C(C(=O)OCC2CC2)C1c1csc2c(C#N)cccc12 (centres unmarked)
3. COC(=O)C1=C(C)NC(N)=C(C(=O)OCC(C)(C)C)C1c1csc2c(C#N)cccc12 (centres unmarked)
4. CC(=O)C1=C(C)NC(C2CC2)=C(C(=O)OC(C)(C)c2ccccc2)C1c1csc2ncccc12 (centres unmarked)
5. CC(=O)C1=C(C)NC(N)=C(C(=O)OCC2CCCCC2)C1c1csc2c(C#N)cccc12 (centres unmarked)
6. COC(=O)C1=C(C)NC(N)=C(C(=O)OCC2CCC2)C1c1csc2c(C#N)cccc12 (centres unmarked)
7. COC(=O)C1=C(COCCN)NC(C)=C(C(C)=O)C1c1csc2ccccc12 (centres unmarked)

["< 100 nM", "< 100 nM", "< 100 nM", "< 100 nM", "< 100 nM", "< 100 nM", "≥ 1000 nM"]
